Target: T1, PolY (Y-family TLS DNA polymerase) (Saccharolobus/Sulfolobus solfataricus …, UniProt Q97W02 1-352)
T1 sequence: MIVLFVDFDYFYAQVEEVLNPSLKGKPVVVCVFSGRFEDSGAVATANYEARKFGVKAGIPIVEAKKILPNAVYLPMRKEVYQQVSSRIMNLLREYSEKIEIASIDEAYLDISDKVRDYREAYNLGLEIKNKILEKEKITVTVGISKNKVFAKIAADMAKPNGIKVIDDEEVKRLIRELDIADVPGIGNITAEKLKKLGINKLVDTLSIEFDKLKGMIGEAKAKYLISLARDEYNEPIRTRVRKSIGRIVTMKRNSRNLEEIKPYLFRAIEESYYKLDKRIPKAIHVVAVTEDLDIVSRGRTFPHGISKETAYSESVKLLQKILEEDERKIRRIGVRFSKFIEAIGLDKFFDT
Assay: fluorescence anisotropy; Fluorescence anisotropy, 4 nM DNA, room temperature, 90 s incubation, Hill fit, mean of three titrations; binding buffer not stated in the material (as in ref 38)
Conditions: protein: recombinant; label: 5'-FAM on primer (strand 1); primer-template, 5' overhang 30 nt on template (strand 2)
assayReadout: Kd
Put down the number, then write its unit next to it.

INSERT INTO measurements (binder, endpointvalue) VALUES
  ('p22-FAM/t52Und (-1, undamaged) (dsDNA) DNA 1: GCGAGGCGAGCGCGAGCGATAC DNA 2: CGTCCAACATGAAGCTTGCACTCGATCGCGGTATCGCTCGCGCTCGCCTCGC', '16.1 nM');

Kd recorded for this binder, p22-FAM/t528 (-1, 8-oxoG) (dsDNA, 8-oxoguanine at position 30 from 5' of strand 2 (23 from 3' end), written as G) DNA 1: GCGAGGCGAGCGCGAGCGATAC DNA 2: CGTCCAACATGAAGCTTGCACTCGATCGCGGTATCGCTCGCGCTCGCCTCGC , is 25.9 nM
